# experiment_notes: log P determination
# Assay type: physicochemical
# run_parameters: measure of lipophilicity
observed_property: logP
Note: the reply should be a number with no unit written.

INPUT: Param item = Fc1ccc(C2(N3CCCCC3)CC3CCC2C3)cc1 (racemic) [Compound 4] ; retrieve measured logP.
OUTPUT: 2.07

###

# experiment_notes: pKa determination
# Assay type: physicochemical
observed_property: pKa
Note: the reply should be a number with no unit written.

INPUT: Param item = Fc1ccc(C2(N3CCCCC3)CC3CCC2C3)cc1 (racemic) [Compound 4] ; retrieve measured pKa.
OUTPUT: 8.87

###

# Tested on: mice
# experiment_notes: Acute toxicity (rotorod minimal motor impairment, overt signs, death) in mice
# Format: in vivo
# Set-up: key: (+++) means some animals died at 100 mg/kg and all animals died at 300 mg/kg; (++) means that some toxicity observed at 100 mg/kg and all animals died at 300 mg/kg; (−) means no toxicity observed at 100 mg/kg and some observed at 300 mg/kg but no animals died at 300 mg/kg
# run_parameters: i.p., 100 and 300 mg/kg
observed_property: Toxicity

Fc1ccc(C2(N3CCCCC3)CC3CCC2C3)cc1 (racemic) :: −
Fc1ccc(C2(N3CCCCC3)CCCCCC2)cc1 :: +++
NC1(c2ccccc2F)CCCCCC1 :: ++
NC1(c2ccc(F)cc2)CC2CCC1C2 (racemic) :: ++
